# Tested on: Barnyardgrass
# test.protocol: post-emergence herbicidal activity, greenhouse
# Type: in vivo
# condition.description: Table II; 2 WAT; 11.2 kg/h; formulated immediately prior to treatment
// values below are reported Plant Response Index (K)

Please review the following examples before continuing.
INSERT INTO results (molecule, test_readout, value_observed) VALUES
  ('CC(C)OC(=O)CNCP(=O)(O[Si](c1ccccc1)(c1ccccc1)C(C)(C)C)O[Si](c1ccccc1)(c1ccccc1)C(C)(C)C', 'Plant Response Index (K)', '2 (50-74% inhibition)'),
  ('CC(C)(C)[Si](C)(C)OC(=O)CNCP(=O)(O[Si](C)(C)C(C)(C)C)O[Si](C)(C)C(C)(C)C', 'Plant Response Index (K)', '1 (25-49% inhibition)'),
  ('CC(C)OC(=O)CNCP(=O)(O)O[Si](c1ccccc1)(c1ccccc1)C(C)(C)C', 'Plant Response Index (K)', '3 (75-99% inhibition)');

Okay, now this molecule:
Look up Plant Response Index (K): CC(C)(C)[Si](C)(C)OP(=O)(CNCC(=O)OCCc1ccccc1)O[Si](C)(C)C(C)(C)C [Ex. 10, Hydrate] 2 (50-74% inhibition)
